- Tested on: PC-3 prostate
- Assay text: NCI tumour cell line growth inhibition, 48 h
Readout kind: TGI

Please review the entries below; each comes with its answer.
CC(C)C1=CC23CCC4C(C)(C(=O)O)CCCC4(C)C2CC1C1C(=O)N(CCCCCCN2C(=O)C4C5CC6C7(C)CCCC(C)(C(=O)O)C7CCC6(C=C5C(C)C)C4C2=O)C(=O)C13 (stereo not drawn) : 19 µM
O=C(Nc1ncc(Cc2cccc(C(F)(F)F)c2)s1)c1ccc2c(c1)OCCO2 : > 100 µM
CCCCNCCCNCCCNC(=O)c1csc(-c2csc(CCNC(=O)C(NC(=O)C(C)C(O)C(C)NC(=O)C(NC(=O)c3nc(C(CC(N)=O)NCC(N)C(N)=O)nc(N)c3C)C(OC3OC(CO)C(O)C(O)C3OC3OC(CO)C(O)C(OC(N)=O)C3O)c3cnc[nH]3)C(C)O)n2)n1 (stereo not drawn) : 50 µM

IN: Fill blank: measured TGI of the molecule Cc1cc(OP2(=O)NCc3ncccc3O2)ccc1Cl (stereo not drawn) is ____.
OUT: > 100 µM

IN: Recorded TGI of O=C(CC(=O)Nc1ccccc1)NNC(Sc1ccccc1)c1cc(N=Nc2ccc(Br)cc2)ccc1O (stereo not drawn) , please.
OUT: > 10 µM

IN: For the molecule shown here, N#Cc1sc2c(c1OC(=O)c1ccc(C(F)(F)F)cc1)c(=O)n(-c1ccccc1)c(=S)n2-c1ccccc1 , give the reported TGI.
OUT: > 100 µM

IN: Returns the measured TGI for the input molecule. Input: CC(C)(C)N=C(N)NC#N
OUT: > 100 µM

IN: Entry COC(=O)c1ccccc1CC1Cc2cccc(C)c2C1=O (stereo not drawn) : reported TGI = ?
OUT: 77.8 µM

====

- Test system: SK-MEL-28 melanoma
- Assay text: NCI tumour cell line growth inhibition, 48 h; in the data active = GI50 below about 0.43 µM; inactive = the rest
Just give me one of these, please: true (active), false (inactive)

Would you please look over these solved cases?
NNc1ncnc2nc[nH]c12 : false
CCOC(=O)c1c(C)c2c(n1Cc1ccccc1)CSCC2=O : false
CC[C@]1(O)C[C@H]2CN(CCc3c([nH]c4ccccc34)C(C(=O)OC)(c3cc4c(cc3OC)N(C)[C@H]3[C@@](O)(C(=O)OC)[C@H](OC(C)=O)[C@]5(CC)[C@@H]6C[C@@H]6CN6CC[C@]43[C@@H]65)C2)C1 (stereo not given in full) : true
C=C(C)[C@@H]1CC[C@]2(CN)CC[C@]3(C)[C@H](CC[C@@H]4[C@@]5(C)CCCNC(C)(C)[C@@H]5CC[C@]43C)[C@@H]12 : false

IN: // outcome(item) with item = COC(=O)c1c2c(c(C)[n+]([O-])c1C)C(=O)C(NCc1ccc(Br)cc1)=CC2=O
OUT: false

IN: Identify the outcome logged in this assay for the compound shown: CCN(CCNS(C)(=O)=O)c1ccc(N)c(C)c1
OUT: false

IN: Assay result, entry COC(=O)/C=C/c1cc(OC(C)=O)c2c(c1)C(C(=O)OC)C(c1ccc(OC(C)=O)c(OC(C)=O)c1)O2 (stereo not given) — outcome?
OUT: false

IN: Dear all, I need the recorded test outcome for COc1cc(/C=C2\CCCCC3=C2N=C2SC(C)=CN2C3c2cc(OC)c(OC)c(OC)c2)cc(OC)c1OC (stereo not given) , thank you.
OUT: false

====

- System: BT-549 breast
- Assay text: NCI tumour cell line growth inhibition, 48 h
Readout kind: GI50

COc1nc(=O)n(C2C=CC(=O)O2)cc1F (stereo not drawn) : 8.29 µM
COC(=O)C1=CN(CC2=CC(=O)C(C)=CC2=O)C=C(C(=O)OC)C1c1ccccc1OC : 17.4 µM

IN: Given the entry CCSc1nc(N=Cc2ccccc2O)c2cn[nH]c2n1 , what GI50 was observed with BT-549 breast?
OUT: 40.6 µM

IN: For the record COc1ccc(CNc2c3ccccc3nc3ccccc23)cc1F , what value of GI50 is listed for BT-549 breast?
OUT: 4.88 µM

IN: Can you look up GI50 on BT-549 breast for COc1ccc(-c2cc(=O)oc3c4c(ccc23)OCN(Cc2ccc(F)cc2)C4)cc1 ?
OUT: 14.6 µM

IN: Please provide the recorded GI50 for COc1cccc2c1O/C(=C\c1ccc([N+](=O)[O-])s1)C2=O , tested on BT-549 breast.
OUT: 1.68 µM

IN: Form: Entry = O=C(Nc1nc(-c2c[nH]c3ccccc23)cs1)c1n[nH]c(=O)c2ccccc12 | System = BT-549 breast | GI50 = ____
OUT: 3.89 µM

IN: // map NC(N)=Nc1nc2ccccc2o1 to recorded GI50 (system: BT-549 breast)
OUT: > 100 µM

====

# TGI per record follows
- Tested on: RPMI-8226 leukemia
- Assay text: NCI tumour cell line growth inhibition, 48 h
Where a SMILES comes first, the peptide text is derived from it. The star is where a group is joined. Palmitoyl = CCCCCCCCCCCCCCCC(=O)*
Provide the reading as a plain figure in µM.

// solved cases for TGI follow
COc1cc2c(cc1OCCCN1CCN(CCCOc3cc4c(cc3OC)C(=O)N3CC(F)(F)C[C@H]3C=N4)CC1)N=C[C@@H]1CC(F)(F)CN1C2=O : 7.73
CCCCCCCCCCCCCCCC(=O)N1CCCC1C(=O)NCC(=O)NC(Cc1ccccc1)C(=O)N1CCCC1C(=O)NC(CO)C(=O)NC(Cc1ccc(O)cc1)C(=O)NC(CCCCN)C(=O)NC(CC(C)C)C(=O)NC(CCCN=C(N)N)C(=O)N1CCCC1C(=O)NCC(N)=O (stereo unspecified) (Palmitoyl-PGFPSYKLRPG-NH2; configuration not given here) : 29.3
C[C@H](CCOc1cccc(CC(=O)O)c1)N(Cc1cccc(C(F)(F)F)c1Cl)CC(c1ccccc1)c1ccccc1 : 22.1

Here is another compound to look at.
IN: Please look up its TGI: COc1ccc(-c2c(C#N)c(N3CCOCC3)nc3[nH]c(=S)[nH]c(=S)c23)cc1OC
OUT: 70.5

====

- Tested on: SK-MEL-2 melanoma
- Assay text: NCI tumour cell line growth inhibition, 48 h
TGI: recorded values

Below, 2 compounds whose answers are already recorded.
CCOC(=O)CC/C(=N/Nc1ccc(Cl)cc1[N+](=O)[O-])C(=O)OCC : > 100 µM
CN1Nc2ccccc2CC1=O : > 100 µM

IN: What does the record list as TGI for CC1(C)C=CC(=O)C(O)C(C)(C)C1=O (stereo not drawn) ?
OUT: > 100 µM

IN: What value of TGI has been reported for the following compound? CCN(C(=O)N[C@@H](C)C(=O)N[C@@H](Cc1ccccc1)C(=O)OC)c1ccccc1
OUT: > 100 µM

====

- System: U251 CNS
- Assay text: NCI tumour cell line growth inhibition, 48 h
Readout kind: TGI

Would you please look over these solved cases?
COc1cccc2c1OC(c1cccc3ccccc13)C([N+](=O)[O-])=C2 (stereo not given) : 2.9 µM
Cc1ccc2c(c1)c1ccc3c(c1n2C)C(=O)C=CC3=O : > 10 µM
Oc1oc(C(=C2N=c3ccccc3=N2)c2ccc(Cl)cc2)c(O)c1-c1ccc(Cl)cc1 : 22.9 µM
COC1OC2COC(c3ccccc3)OC2C(O)C1OC(=S)c1ccccc1 (stereo not given) : 12.9 µM
CCOC(=O)Cc1csc(Nc2ccccc2[N+](=O)[O-])n1 : > 100 µM
CC[C@@H]1NC(C(=O)OC)Cc2c1[nH]c1ccccc21 (stereo not given in full) : > 100 µM

IN: So what TGI did CC(=O)N/C(=C\c1ccccc1/C=C(\NC(C)=O)c1nc2cc(C)c(C)cc2[nH]1)c1nc2cc(C)c(C)cc2[nH]1 get with U251 CNS?
OUT: > 100 µM

IN: Lab request: please report TGI under test system U251 CNS for [N-]=[N+]=NC1(c2ccccc2)C(=O)c2cccc3c2N(CCC3)C1=O (stereo not given)
OUT: > 100 µM

IN: // map CCOC(=O)CC/C(=N/Nc1ccc(Cl)cc1[N+](=O)[O-])C(=O)OCC to recorded TGI (system: U251 CNS)
OUT: > 100 µM

IN: What reported TGI corresponds to Cc1cc(C[C@H]2O[C@@H]3OC(C)(C)O[C@@H]3[C@H]3OC(C)(C)O[C@H]32)c2ccccc2n1 on U251 CNS?
OUT: > 100 µM

====

- Test system: OVCAR-3 ovarian
- Assay text: NCI tumour cell line growth inhibition, 48 h; in the data active = GI50 below about 0.43 µM; inactive = the rest
Lab note: assign the record to one of active, inactive

Recorded results for 3 compounds are shown here.
COc1nc(=O)n(C2C=CC(=O)O2)cc1F (configuration not stated) : inactive
Cc1nc2sccn2c1-c1nc2sccn2c1/C=C1/C(=O)Nc2ccccc21 : inactive
C=C(CN(C)Cc1ccccc1)c1ccc(NC(=O)c2ccc(C(=C)CN(C)Cc3ccccc3)cc2)cc1 : inactive

IN: Could you check what this test reported for CCCCCCn1c(-c2ccc(C(=O)O/N=C(\N)c3ccc4c(c3)OCO4)cc2)nc(-c2ccccc2)c1-c1ccccc1 ?
OUT: inactive

IN: How did this test come out for NCCCn1c2c(c3ccc([N+](=O)[O-])cc3c1=O)C(=O)c1cc(I)ccc1-2 ?
OUT: inactive

IN: Call for entry NNc1ncnc2nc[nH]c12 :
OUT: inactive

IN: Please state the recorded outcome for this compound: COc1cc2c(cc1OCCCN1CCN(CCCOc3cc4c(cc3OC)C(=O)N3CC(F)(F)C[C@H]3C=N4)CC1)N=C[C@@H]1CC(F)(F)CN1C2=O
OUT: inactive

IN: Please share the test call associated with Cc1nc2c(Br)cc(Br)cc2c(=O)n1-c1nnc(-c2cccc(Cl)c2Cl)c(N)n1 .
OUT: inactive

IN: Hi, do you know how COc1ccc(-c2c(C#N)c(N3CCOCC3)nc3[nH]c(=S)[nH]c(=S)c23)cc1OC came out in this test?
OUT: inactive
